B1: ZNF649 (parent)
chain: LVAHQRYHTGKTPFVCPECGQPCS

Variants of: B1
Test: protein stability index of a GFP-peptide fusion (GPS, HEK-293T) (PSI 1-6); higher = more stable;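 further: lentivirally expressed fusions sorted by FACS into six bins by GFP to DsRed ratio, PSI derived from sequencing read proportions per bin multiplied by bin number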
Settings: c terminus: a fixed tail appended
Given measured protein stability index, output t if it is greater than or equal to 3 and f if not.

• Q21G = t
• G20D = t
• R6I = t
• C23S = f
• T12K = t
• G10N = t
• P22C = t
• Q5H = t
• C16K = f
• H8D = t
• Q5V = f
• P22S = t
• A3K = t
• P17A = f
• C16D = t
• G10L = t
• Q5M = f
• G20N = t
• L1T = t
• T9R = f
